Recorded values, source the supplement of paper PMC10201428.

System: VchCAST RNA-guided transposition machinery (E. coli BL21(DE3) host, lacZ target)
Assay: relative integration efficiency (T-RL orientation) vs wild-type transposon end (log2 (normalized fold change)); transposon end mutated: left end; higher = more efficient transposition
# relative integration efficiency (log2) per record follows
No unit in the answer, only the number.

Please review the entries below; each comes with its answer.
AATGTTGTTGATGCAACCATAAAGTGATATTTAATAATTATTTATAATCAGCAACAACCATATATTGATATCTCCTTAACCACAAAAACAAAACAACCATAAGTTGATATTTTTGTGAATCGAGTATTTCAGCAAAACTACTGCAGTAAGAA : -6.46
AATGTTGTTGATGCAACCATAAAGTGATATTTAATAATTATTTATAATCAGCAACTTACAACCATATATTGATATCTCACAAAACAACCATAAGTTGATATTTTACCACAAAATGTGAATCGAGTATTTCAGCAAAACTACTGCAGTAAGAA : -1
AATGTTGTTGATGCACCCATAAATTGATAATTAATAATTATTTATAATCAGCAACTTAACCACAAAACACCCATAAATTGATATTGCACAAAAGTTGGTATTCAACTATAAAATGTGAATCGAGTATTTCAGCAAAACTACTGCAGTAAGAA : -3.68

Now examine the next entry.
So what does the record say about relative integration efficiency (log2) for `AATGTTGTTGATGCAACCATAAAGTGATATTTAATAATTATTTATAACAACCATATATTGATATCTCACAAAACAACCATAAGTTGATATTTTTCAGCAACTTAACCACAAAATGTGAATCGAGTATTTCAGCAAAACTACTGCAGTAAGAA` ?
-5.63
